Value source: PubChem BioAssay AID2060895

- System: PDC 899932-113-R3-J6 complex spheroid viability
- experimental-protocol: Anticancer human tumor 899932-113-R3-J6-PDC patient-derived melanoma cell line growth inhibition [RAS]
- condition: second compound 0.0949 µM; first compound 0.000949 µM; hits give low values
viability, T/C by entry:
Give a bare numeral; the unit % is implied.

[ask] Report viability, T/C, nothing else, for this compound: CC1(C)CCC(Nc2ncc(C(F)(F)F)c(-c3c[nH]c4c(P(C)(C)=O)c(C#N)ccc34)n2)CN1 (centres undefined) + CCn1c(-c2cccnc2C(C)OC)c2c3cc(ccc31)N1CCOC(CC(NC(=O)C(C(C)C)N(C)C(=O)C3(F)CCN(C(=O)C#CC(C)(C)N(C)C)CC3)C(=O)N3CCCC(N3)C(=O)OCC(C)(C)C2)C1
[reply] 100

Continuing:
[ask] Give the reported viability, T/C for this compound. CC1(C)CCC(Nc2ncc(C(F)(F)F)c(-c3c[nH]c4c(P(C)(C)=O)c(C#N)ccc34)n2)CN1 (centres undefined) + CCn1c(-c2cc(N3CCN(C)CC3)cnc2C(C)OC)c2c3cc(ccc31)-c1csc(n1)CC(NC(=O)C1CC1C)C(=O)N1CCCC(N1)C(=O)OCC(C)(C)C2
[reply] 2.17

[ask] Annotate the compound CCc1c2c(nc3ccc(O)cc13)-c1cc3c(c(=O)n1C2)COC(=O)[C@]3(O)CC + CCn1c(-c2cccnc2C(C)OC)c2c3cc(ccc31)N1CCOC(CC(NC(=O)C(C(C)C)N(C)C(=O)C3(F)CCN(C(=O)C#CC(C)(C)N(C)C)CC3)C(=O)N3CCCC(N3)C(=O)OCC(C)(C)C2)C1 with its measured viability, T/C.
[reply] 88.3

[ask] Return reported viability, T/C. Input compound: CCc1c2c(nc3ccc(O)cc13)-c1cc3c(c(=O)n1C2)COC(=O)[C@]3(O)CC + CCn1c(-c2cc(N3CCN(C)CC3)cnc2C(C)OC)c2c3cc(ccc31)-c1csc(n1)CC(NC(=O)C1CC1C)C(=O)N1CCCC(N1)C(=O)OCC(C)(C)C2
[reply] 2.12

---

- Test system: PDC 899932-113-R3-J6 complex spheroid viability
- experimental-protocol: Anticancer human tumor 899932-113-R3-J6-PDC cell line growth inhibition [RAS]; active = viability on the fitted dose curve at most 10% of control; inactive = the rest;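 further: spheroids exposed to agents for seven days before readout; 100% = DMSO vehicle control wells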
- condition: second compound 0.00949 µM; first compound 0.01 µM
Your response should consist of one outcome taken from y = active, n = inactive

[ask] Outcome logged for O=C(c1ccc(F)c(F)c1Nc1ccc(I)cc1F)N1CC(O)([C@@H]2CCCCN2)C1 + CCn1c(-c2cc(N3CCN(C)CC3)cnc2C(C)OC)c2c3cc(ccc31)-c1csc(n1)CC(NC(=O)C1CC1C)C(=O)N1CCCC(N1)C(=O)OCC(C)(C)C2 in this assay:
[reply] y

New cases:
[ask] Answer briefly: the call reported for CCN1CCN(Cc2ccc(Nc3ncc(F)c(-c4cc(F)c5nc(C)n(C(C)C)c5c4)n3)nc2)CC1 + CCn1c(-c2cc(N3CCN(C)CC3)cnc2C(C)OC)c2c3cc(ccc31)-c1csc(n1)CC(NC(=O)C1CC1C)C(=O)N1CCCC(N1)C(=O)OCC(C)(C)C2 in this assay.
[reply] y

[ask] What is the recorded call for this molecule in the test? CC(C)n1nc(-c2ccc3oc(N)nc3c2)c2c(N)ncnc21 + CCn1c(-c2cccnc2C(C)OC)c2c3cc(ccc31)N1CCOC(CC(NC(=O)C(C(C)C)N(C)C(=O)C3(F)CCN(C(=O)C#CC(C)(C)N(C)C)CC3)C(=O)N3CCCC(N3)C(=O)OCC(C)(C)C2)C1
[reply] n

[ask] # fetch the recorded call for Nc1ccn(C2OC(CO)C(O)C2(F)F)c(=O)n1 (stereo not drawn) + CCn1c(-c2cccnc2C(C)OC)c2c3cc(ccc31)N1CCOC(CC(NC(=O)C(C(C)C)N(C)C(=O)C3(F)CCN(C(=O)C#CC(C)(C)N(C)C)CC3)C(=O)N3CCCC(N3)C(=O)OCC(C)(C)C2)C1 here
[reply] n

[ask] Per the records of this test, what outcome belongs to Nc1ccn(C2OC(CO)C(O)C2(F)F)c(=O)n1 (stereo not drawn) + CCn1c(-c2cc(N3CCN(C)CC3)cnc2C(C)OC)c2c3cc(ccc31)-c1csc(n1)CC(NC(=O)C1CC1C)C(=O)N1CCCC(N1)C(=O)OCC(C)(C)C2 ?
[reply] y

[ask] Returns: the outcome recorded for C=CC(=O)Nc1cc(Nc2nccc(-c3cn(C)c4ccccc34)n2)c(OC)cc1N(C)CCN(C)C + CCn1c(-c2cccnc2C(C)OC)c2c3cc(ccc31)N1CCOC(CC(NC(=O)C(C(C)C)N(C)C(=O)C3(F)CCN(C(=O)C#CC(C)(C)N(C)C)CC3)C(=O)N3CCCC(N3)C(=O)OCC(C)(C)C2)C1 in this assay.
[reply] n

[ask] Record lookup: outcome of this test for CC(C)n1nc(-c2ccc3oc(N)nc3c2)c2c(N)ncnc21 + CCn1c(-c2cc(N3CCN(C)CC3)cnc2C(C)OC)c2c3cc(ccc31)-c1csc(n1)CC(NC(=O)C1CC1C)C(=O)N1CCCC(N1)C(=O)OCC(C)(C)C2 ?
[reply] y

[ask] What outcome does the record of this test show for C=CC(=O)N1CCN(c2nc(OCC3CCCN3C)nc3c(F)c(-c4nc(N)cc(C)c4C(F)(F)F)c(Cl)cc23)C(C)C1 (stereo not drawn) + CCn1c(-c2cc(N3CCN(C)CC3)cnc2C(C)OC)c2c3cc(ccc31)-c1csc(n1)CC(NC(=O)C1CC1C)C(=O)N1CCCC(N1)C(=O)OCC(C)(C)C2 ?
[reply] y
